src = patent US20040048900A1

# PROCEDURE_SUMMARY: in vivo
# STATED_CONDITIONS: female, mouse, plasma, ip, 5 mg/kg
READOUT_TYPE: concentration at 1 h (nM)
Give bare numbers, in nM.

Challenge: Supply reported concentration at 1 h belonging to this compound: CNC1(C)C2CCC(C2)C1(C)C (stereo not shown) [mecamylamine]
Response given: 203

---

# PROCEDURE_SUMMARY: in vivo
# STATED_CONDITIONS: female, mouse, plasma, intraperitoneal, 5 mg/kg
READOUT_TYPE: concentration at 1 h (nM)
Give bare numbers, in nM.

Challenge: Entry CNC1(C)C2CCC(C2)C1(C)C (stereo not shown) needs its concentration at 1 h filled in; supply it.
Response given: 200
